experiment: growth suppression of PTEN-deleted HCT116, pilot screen, cell-based, HCT116 clonal line, CellTiter-Glo (AID 824); conditions: 60 h, at 10 µM, stronger effect = lower value;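 note: 0% = 20 µM Hyamine control and 100% = vehicle cell control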
Inconclusive results are not listed. Active and inactive are the calls of the source.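 Rule for the calls: active = viability at or below 27.92% in each of two runs, the all-compound median minus 4 SD; inconclusive = no clear call, values can overlap the other calls; inactive = the rest.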
Readout Name: viability

Task: # viability lookup, item CN1CCN(c2cc(=O)n(C3CCCCC3)c(=O)[nH]2)CC1
Output: 103% (inactive)

Task: Field request: viability | item: CCn1c(-c2cc(OC)ccc2OC)csc1=Nc1c(C)n(C)n(-c2ccccc2)c1=O
Output: 92.5% (inactive)

Task: Entry CC(=O)Nc1ccc(NC(=O)CCC(=O)NCCO)cc1 has what viability?
Output: 92.8% (inactive)

Task: Endpoint output: viability of COc1ccc(N2CCN(C3CC(=O)N(C)C3=O)CC2)cc1 (stereo unspecified) . Value?
Output: 100% (inactive)

Task: Please look up its viability: COc1ccc2nc(NC(=O)C3COc4ccccc4O3)sc2c1 (stereo unspecified)
Output: 91.7% (inactive)

Task: // returns reported viability for input O=S1(=O)N=C(Nc2ccc(O)c(CN3CCCCC3)c2)c2ccccc21
Output: 97.1% (inactive)

Task: Consider the compound CCOC(=O)NC(C(F)(F)F)(C(F)(F)F)P(=O)(c1ccccc1)c1ccccc1 and give its measured viability.
Output: 91.7% (inactive)

Task: Look at this compound and give its reported viability. CC(C)(C)NC(=O)C1CCCN(S(=O)(=O)c2cccc3cccnc23)C1 (stereo unspecified)
Output: 96.1% (inactive)

Task: Quick check: viability of CCS(=O)(=O)NCc1csc(-c2ccccc2)n1 ?
Output: 87.5% (inactive)

Task: Report viability for O=c1[nH]c(=S)[nH]nc1Cc1ccccc1 please.
Output: 98.2% (inactive)

Task: Which viability is listed for Cc1ccc(C)c(NC(=O)CS(=O)(=O)c2c[nH]c3ccccc23)c1 ?
Output: 93.5% (inactive)

Task: Item Cc1cc(C(=O)NCc2ccccc2)c(=O)[nH]c1C has what recorded viability?
Output: 90.3% (inactive)

Task: Record request: viability value, item O=C1CC(c2ccccc2)CN1S(=O)(=O)c1ccccc1 (stereo unspecified)
Output: 97.8% (inactive)

Task: # viability lookup, item COc1cc2ccccc2cc1-c1nnc(COc2ccccc2)o1
Output: 83.4% (inactive)

Task: May I ask what viability has been recorded for c1coc(-c2nc(-c3ccco3)c(-c3ccco3)nc2-c2ccco2)c1 ?
Output: 86.5% (inactive)

Task: Which viability reading was recorded for the compound COc1ccc(C)cc1S(=O)(=O)N1CCN(S(=O)(=O)c2cc(C)ccc2OC)C(C)C1 (stereo unspecified) ?
Output: 85.6% (inactive)

* * *

experiment: growth suppression of beta-catenin knockout HCT116, pilot screen, human colon tumor cells (AID 823); details: CellTiter-Glo, 60 h, at 10 µM, stronger effect = lower value;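 note: 0% = wells killed by 20 µM Hyamine and 100% = untreated DMSO cell wells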
Results filed as inconclusive are left out. Calls of active or inactive are those of the source.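 How the source made its calls: active means cell viability at or below a set limit in both duplicate runs, the limit being the all-compound median minus 4 SD (cut at about 23% in these data, passing the limit was not always enough); inconclusive means no clear call, values can overlap the other calls; inactive means the rest.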
Readout Name: viability

Task: Can you share its viability? I mean this compound: Cc1ccc(-c2nc(CS(=O)CC(=O)NCCN3CCCC3)c(C)o2)cc1 (stereo not drawn)
Output: 86.4% (inactive)

Task: Reported viability for CCOc1ccccc1C1C(C(=O)Nc2ccccc2OC)=C(C)Nc2nc(CCCO)nn21 (stereo not drawn) : what is it?
Output: 89.5% (inactive)

Task: So what does the record say about viability for S=c1nc(-c2ccccc2)n(CCCn2ccnc2)c2c1CCCC2 ?
Output: 102% (inactive)

Task: I'd like to know its viability. The compound in question is N#CCC(=O)Nc1sc2c(c1C(N)=O)CCCC2
Output: 97.5% (inactive)

Task: What value of viability has been reported for the following compound? COc1cc(C(c2sc3nc(C)nn3c2O)N2CCc3ccccc3C2)cc(OC)c1OC (stereo not drawn)
Output: 110% (inactive)

Task: What viability value was documented for this compound, Clc1ccc(-c2nnc(N3CCCC3)nn2)cc1 ?
Output: 86.6% (inactive)

Task: Any idea what its viability is? The compound is COc1ccc(C)cc1NC(=O)c1nnn(CCc2ccccc2)c1N
Output: 85.8% (inactive)

Task: Which viability is listed for Oc1ccccc1-c1nnc(COc2ccccc2)o1 ?
Output: 72.2% (inactive)
